Form field: IC50 or EC50 (potency, activation or inhibition) (one value per entry).
Tested on: LXRα and/or LXRβ
protocolText: Co-transfection assay (LXRE luciferase reporter, CV-1 cells)
Type: cell-based, human
assayConditions: tested as described in Example 33; IC50 or EC50 for LXRα and/or LXRβ, isoform not specified; read-out: activity (IC50 or EC50 for LXR)

Check out these entries, answers already filled in.
- CCS(=O)(=O)c1cccc(-c2ccc(-n3cc(C(C)(C)O)nc3-c3c(F)cccc3Cl)c(Cl)c2)c1: < 1 µM
- CCS(=O)(=O)c1cccc(-c2cc(C)c(-n3cc(C(C)(C)O)nc3-c3ccccc3Cl)c(Cl)c2)c1: < 1 µM
- Cc1cc(-c2cccc(S(C)(=O)=O)c2)ccc1-n1cc(C(C)(C)O)nc1-c1ccccc1C(F)(F)F: < 1 µM

stdin: Which measured IC50 or EC50 (potency, activation or inhibition) belongs to CC(C)(CO)c1cn(-c2ccc(-c3cccc(S(C)(=O)=O)c3)cc2)c(-c2c(Cl)cccc2Cl)n1 , tested on LXRα and/or LXRβ?
stdout: < 1 µM

stdin: Enter reported IC50 or EC50 (potency, activation or inhibition) observed with LXRα and/or LXRβ for Cc1cc(-c2cccc(S(C)(=O)=O)c2)ccc1-n1cc(C(C)(C)O)nc1-c1c(F)cccc1Cl
stdout: < 1 µM

stdin: Form field - read-out: IC50 or EC50 (potency, activation or inhibition); system: LXRα and/or LXRβ; submitted item: Cc1cc(-c2ccc(C(=O)O)cc2Cl)ccc1-n1cc(C(C)(C)O)nc1-c1c(Cl)cccc1Cl
stdout: > 10 µM

stdin: Hi! What's the reported IC50 or EC50 (potency, activation or inhibition) for CCS(=O)(=O)c1cccc(-c2ccc(-n3cc(C(C)(C)O)nc3-c3cccc(Cl)c3Cl)c(C)c2)c1 on LXRα and/or LXRβ?
stdout: < 1 µM

stdin: What reported IC50 or EC50 (potency, activation or inhibition) corresponds to CC(=O)c1cn(-c2ccc(-c3cccc(S(C)(=O)=O)c3)cc2)c(-c2ccccc2C(F)(F)F)n1 on LXRα and/or LXRβ?
stdout: < 1 µM

stdin: Value wanted: IC50 or EC50 (potency, activation or inhibition) (LXRα and/or LXRβ) of entry CS(=O)(=O)c1cccc(-c2ccc(-n3cc(C(=O)NCC(F)(F)F)nc3-c3c(Cl)cccc3Cl)cc2)c1
stdout: < 1 µM

stdin: What value of IC50 or EC50 (potency, activation or inhibition) on LXRα and/or LXRβ does CCS(=O)(=O)c1cccc(-c2ccc(-c3nc(C(C)(C)O)cn3-c3c(Cl)cccc3Cl)c(C)c2)c1 have?
stdout: < 1 µM

stdin: Form field - read-out: IC50 or EC50 (potency, activation or inhibition); system: LXRα and/or LXRβ; submitted item: CC(C)(O)c1cn(-c2ccc(-c3cccc(C(=O)O)c3)cc2)c(-c2ccccc2Cl)n1
stdout: 1 to 10 µM

stdin: Find the measured IC50 or EC50 (potency, activation or inhibition): item CCS(=O)(=O)c1cccc(-c2ccc(-n3cc(C(C)(C)O)nc3-c3ccccc3C(C)C)c(C)c2)c1 , target or system LXRα and/or LXRβ.
stdout: < 1 µM

stdin: Lab note: need IC50 or EC50 (potency, activation or inhibition) for CC(C)(O)c1cn(-c2ccc(-c3cc(C(F)(F)F)ccc3F)cc2)c(-c2ccccc2C(F)(F)F)n1 on LXRα and/or LXRβ, anyone have it?
stdout: < 1 µM

stdin: Please provide the recorded IC50 or EC50 (potency, activation or inhibition) for CC(C)(O)c1cn(-c2ccc(-c3ccc(CO)c(S(C)(=O)=O)c3)cc2Cl)c(-c2c(Cl)cccc2Cl)n1 , tested on LXRα and/or LXRβ.
stdout: < 1 µM

stdin: Please provide the recorded IC50 or EC50 (potency, activation or inhibition) for CC(C)(O)c1cn(-c2cccc(-c3cccc(S(C)(=O)=O)c3)c2)c(-c2ccccc2C(F)(F)F)n1 , tested on LXRα and/or LXRβ.
stdout: < 1 µM

stdin: Enter reported IC50 or EC50 (potency, activation or inhibition) observed with LXRα and/or LXRβ for Cc1cc(-c2cccc(S(C)(=O)=O)c2)ccc1-n1cc(C(C)(C)O)nc1-c1c(C)cccc1Cl
stdout: < 1 µM

====

Tested on: LXRα and/or LXRβ
protocolText: Co-transfection assay (LXRE luciferase reporter, CV-1 cells)
Format: cell-based, human
assayConditions: tested as described in Example 33; IC50 or EC50 for LXRα and/or LXRβ, isoform not specified; read-out: activity (IC50 or EC50 for LXR)
// IC50 or EC50 (potency, activation or inhibition) lookup, one value per entry

Below, 3 molecules whose answers are already recorded.
* CC(C)(O)c1cn(-c2ccc(-c3ccc4c(c3)S(=O)(=O)CC4O)cc2Cl)c(-c2c(F)cccc2Cl)n1 (stereo not shown) | 1 to 10 µM
* CCS(=O)(=O)c1cccc(-c2ccc(-c3nc(C(C)(C)O)cn3-c3c(Cl)cccc3Cl)s2)c1 | 1 to 10 µM
* CC(C)(O)c1cn(-c2ccc(Br)cc2)c(-c2ccccc2C(F)(F)F)n1 | 1 to 10 µM

stdin: What value of measured IC50 or EC50 (potency, activation or inhibition) is listed for CC(C)(O)c1cn(-c2ccc(-c3ccc(CO)c(S(C)(=O)=O)c3)cc2Cl)c(-c2cccc(F)c2Cl)n1 ?
stdout: < 1 µM

====

Test system: LXRα and/or LXRβ
protocolText: Co-transfection assay (LXRE luciferase reporter, CV-1 cells)
Assay type: cell-based, human
assayConditions: tested as described in Example 33; IC50 or EC50 for LXRα and/or LXRβ, isoform not specified; read-out: activity (IC50 or EC50 for LXR)
reportedEndpoint: IC50 or EC50 (potency, activation or inhibition)

Take a look at these entries with their results.
* CC(C)(O)c1cn(-c2ccc(-c3cccc(S(C)(=O)=O)c3)cc2Cl)c(-c2c(Cl)cccc2Cl)n1 [Example 142] | < 1000 nM
* Cc1cc(-c2ccc(CO)c(S(C)(=O)=O)c2)ccc1-n1cc(C(C)(C)O)nc1-c1c(C)cccc1Cl [Example 177] | < 1000 nM
* CC(C)(O)c1nc(-c2ccccc2C(F)(F)F)n(-c2ccc(-c3cccc(S(C)(=O)=O)c3)cc2)c1Br [Example 402] | < 1000 nM
* CC(C)(O)c1cn(-c2ccc(-c3ccc(C(N)=O)c(S(C)(=O)=O)c3)cc2Cl)c(-c2c(F)cccc2Cl)n1 [Example 453] | 1000 to 10000 nM
* CC(C)(O)c1cn(-c2ccc(-c3cccc(S(C)(=O)=O)c3)cc2)c(-c2ccccc2)n1 [Example 378] | 1000 to 10000 nM
* CC(C)(O)c1cn(-c2ccc(-c3cccc(S(C)(=O)=O)c3)c(F)c2)c(-c2ccccc2C(F)(F)F)n1 [Example 111] | < 1000 nM

Next, consider the following compound.
stdin: Any idea what IC50 or EC50 (potency, activation or inhibition) was measured for CCS(=O)(=O)c1cccc(-c2ccc(-n3cc(C(C)(C)O)nc3-c3c(Cl)cccc3Cl)c(Cl)c2)c1 [Example 150] ?
stdout: < 1000 nM

====

Entries and their measured IC50 or EC50 (potency, activation or inhibition) follow.
Test system: LXRα and/or LXRβ
protocolText: Co-transfection assay (LXRE luciferase reporter, CV-1 cells)
Format: cell-based, human
assayConditions: tested as described in Example 33; IC50 or EC50 for LXRα and/or LXRβ, isoform not specified; read-out: activity (IC50 or EC50 for LXR)

- CC(C)(O)c1cn(-c2ccc(-c3ccc(CO)c(S(C)(=O)=O)c3)cc2F)c(-c2c(Cl)cccc2Cl)n1: < 1000 nM
- CC(C)(O)c1cn(-c2ccc(-c3ccc(C(C)(C)O)c(S(C)(=O)=O)c3)cc2Cl)c(-c2ccccc2Cl)n1: < 1000 nM
- CCS(=O)(=O)c1cccc(-c2ccc(-n3cc(C(C)(C)O)nc3-c3cccc(Cl)c3Cl)c(F)c2)c1: < 1000 nM
- Cc1cc(-c2cccc(S(C)(=O)=O)c2)ccc1-c1nc(C(C)(C)O)cn1-c1ccccc1C(C)C: < 1000 nM
- CC(C)(O)c1cn(-c2ccc(-c3cccc(S(C)(=O)=O)c3)cc2)c(-c2cnccc2C(F)(F)F)n1: > 10000 nM

stdin: # value lookup — system LXRα and/or LXRβ, readout IC50 or EC50 (potency, activation or inhibition), item CC(C)c1cccc(-c2ccc(-n3cc(C(C)(C)O)nc3-c3ccccc3Cl)cc2)c1
stdout: 1000 to 10000 nM

stdin: Provide value of IC50 or EC50 (potency, activation or inhibition) for this record tested with LXRα and/or LXRβ: CC(C)(CO)NC(=O)c1cn(-c2ccc(-c3cccc(S(C)(=O)=O)c3)cc2)c(-c2c(Cl)cccc2Cl)n1
stdout: < 1000 nM

The reported numbers originate from patent US9000022B2.
